- Experiment Notes: Solubility in water
- Type: physicochemical
- Condition Details: read-out: solubility in water (fully soluble)
Reported Endpoint: solubility

Query: Which solubility is reported for this compound? CC1(C)C=Cc2c(ccc3c2C(=O)C=C(O)C3=O)O1
Reply: ≥ 10000 µg/mL

The origin of these recorded values is patent US20090170926A1.
